Entry source: the supplement of paper PMC11061612

System: KYSE-220 (Esophageal Squamous Cell Carcinoma)
Experiment: combination Emax (second highest fraction inhibited in the dose matrix, 72 h); higher = more inhibition; extreme values may be limits of the assay
Quick reference: combination Emax of the listed items.
Lab note: jot down the number only; don't add units.

Examples with their reported combination Emax follow.
{"Molecule": "CS(=O)(=O)CCNCc1ccc(-c2ccc3ncnc(Nc4ccc(OCc5cccc(F)c5)c(Cl)c4)c3c2)o1 [Lapatinib] + NC1(c2ccc(-c3nc4ccn5c(=O)[nH]nc5c4cc3-c3ccccc3)cc2)CCC1 [MK-2206] (first compound max 10 µM, 7x7, partner max 10 µM)", "Observed value": 0.981}
{"Molecule": "C[C@@H](Oc1cc(-c2cnn(C3CCNCC3)c2)cnc1N)c1c(Cl)ccc(F)c1Cl [Crizotinib] + CC1=C(C(=CC=C1)Cl)NC(=O)C2=CN=C(S2)NC3=CC(=NC(=N3)C)N4CCN(CC4)CCO [Dasatinib] (first compound max 10 µM, 7x7, partner max 2 µM)", "Observed value": 0.968}

## Input Endpoint output: combination Emax of Cc1c2c(nn1C)CSCc1cc(n(C)n1)CSc1cc(c3ccccc3c1)OCCCc1c(C(=O)O)n(C)c3c-2c(Cl)ccc13 [AZD5991] + CC(=O)O[C@H]1C(=O)[C@@]2(C)[C@H]([C@H](OC(=O)c3ccccc3)[C@]3(O)C[C@H](OC(=O)[C@H](O)[C@@H](NC(=O)c4ccccc4)c4ccccc4)C(C)=C1C3(C)C)[C@]1(OC(C)=O)CO[C@@H]1C[C@@H]2O [Paclitaxel] (first compound max 1 µM, 7x7, partner max 3 µM) . Value?
## Output 0.745

---

System: TE-10 (Esophageal Squamous Cell Carcinoma)
Assay: combination Emax (second highest fraction inhibited in the dose matrix, 72 h); higher = more inhibition; extreme values may be limits of the assay
Quick list: combination Emax per entry.
Give the value as a plain number.

Recorded combination Emax, per entry:
{"Molecule": "CC1(C)CCC(CN2CCN(c3ccc(C(=O)NS(=O)(=O)c4ccc(NCC5CCOCC5)c([N+](=O)[O-])c4)c(Oc4cnc5[nH]ccc5c4)c3)CC2)=C(c2ccc(Cl)cc2)C1 [Venetoclax] + C[C@@H]1COCCN1C2=NC(=NC(=C2)C3(CC3)[S@](=N)(=O)C)C4=C5C=CNC5=NC=C4 [AZD6738] (first compound max 1 µM, 7x7, partner max 10 µM)", "combination Emax": 0.827}
{"Molecule": "CC1(C)CCC(CN2CCN(c3ccc(C(=O)NS(=O)(=O)c4ccc(NCC5CCOCC5)c([N+](=O)[O-])c4)c(Oc4cnc5[nH]ccc5c4)c3)CC2)=C(c2ccc(Cl)cc2)C1 [Venetoclax] + CCN(CCO)CCCOc1ccc2c(Nc3cc(CC(=O)Nc4cccc(F)c4)[nH]n3)ncnc2c1 [AZD2811] (first compound max 1 µM, 7x7, partner max 1 µM)", "combination Emax": 0.59}

Kindly consider the entry below.
## Input Reported combination Emax for CCc1c2c(nc3ccc(O)cc13)-c1cc3c(c(=O)n1C2)COC(=O)[C@]3(O)CC [SN-38] + O=C(c1cc(Cc2n[nH]c(=O)c3ccccc23)ccc1F)N1CCN(C(=O)C2CC2)CC1 [Olaparib] (first compound max 0.3 µM, 7x7, partner max 10 µM) : what is it?
## Output 0.752

---

Recorded Bliss excess values for a group of compounds are listed next.
System: EB2 (Burkitt's Lymphoma);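 note: after 72 h of two-drug dosing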
Test: Bliss excess, mean over the matrix (fraction); higher = more synergy
Give the value as a plain number.

{"Compound": "Cc1c2c(nn1C)CSCc1cc(n(C)n1)CSc1cc(c3ccccc3c1)OCCCc1c(C(=O)O)n(C)c3c-2c(Cl)ccc13 [AZD5991] + CCN(CCO)CCCOc1ccc2c(Nc3cc(CC(=O)Nc4cccc(F)c4)[nH]n3)ncnc2c1 [AZD2811] (first compound max 1 µM, 7x7, partner max 1 µM)", "Target of assay": "EB2 (Burkitt's Lymphoma)", "Result type": "Bliss excess", "Observed value": 0.0391}

Turning to the following compound.
## Input So what's the measured Bliss excess for this one? COc1cccc(OCCCN)c1-c1cc(Nc2cnc(C#N)cn2)n[nH]1 [Prexasertib] + Cc1cc2ncnn2cc1Nc1ncc2c(n1)n(C1CCOCC1)c(=O)n2C [AZD7648] (first compound max 1 µM, 7x7, partner max 10 µM)
## Output -0.0306
